All figures here come from ChEMBL document CHEMBL3102758.

# testSystem: Beta-secretase 1 (Homo sapiens)
# test: Inhibition of recombinant human BACE1 using (7-methoxycoumarin-4-yl)acetyl-SEVNL*DAEFRK(2,4-dinitrophenyl)-RR-NH2) as substrate at 0.2 uM by FRET assay
For each entry below, report its inhibition value.
Reply with just the number (in %).

Kindly indicate its recorded inhibition. Item: COc1cc(C(=O)N[C@@H](Cc2ccccc2)[C@H](O)C(=O)Nc2cccc(-c3nn[nH]n3)c2)nc(C(=O)N2COC[C@@H]2c2ccccc2)c1
53

Fill in reported inhibition for this entry: CSc1cc(C(=O)N[C@@H](Cc2ccccc2)[C@H](O)C(=O)Nc2cccc(-c3nn[nH]n3)c2)nc(C(=O)N2COC[C@@H]2c2ccccc2)c1
66

Answer with the recorded inhibition of Cc1cc(C(=O)N[C@@H](Cc2ccccc2)[C@H](O)C(=O)Nc2cccc(-c3nn[nH]n3)c2)nc(C(=O)N2COC[C@@H]2c2ccccc2)c1 only.
68

Give inhibition for the following compound: Nc1cc(C(=O)N[C@@H](Cc2ccccc2)[C@H](O)C(=O)Nc2cccc(-c3nn[nH]n3)c2)nc(C(=O)N2COC[C@@H]2c2ccccc2)c1
53

Specify measured inhibition for [N-]=[N+]=Nc1cc(C(=O)N[C@@H](Cc2ccccc2)[C@H](O)C(=O)Nc2cccc(-c3nn[nH]n3)c2)nc(C(=O)N2COC[C@@H]2c2ccccc2)c1 .
68

###

# testSystem: Beta-secretase 1 (Homo sapiens, UniProt P56817)
# Sequence (P56817 whole entry): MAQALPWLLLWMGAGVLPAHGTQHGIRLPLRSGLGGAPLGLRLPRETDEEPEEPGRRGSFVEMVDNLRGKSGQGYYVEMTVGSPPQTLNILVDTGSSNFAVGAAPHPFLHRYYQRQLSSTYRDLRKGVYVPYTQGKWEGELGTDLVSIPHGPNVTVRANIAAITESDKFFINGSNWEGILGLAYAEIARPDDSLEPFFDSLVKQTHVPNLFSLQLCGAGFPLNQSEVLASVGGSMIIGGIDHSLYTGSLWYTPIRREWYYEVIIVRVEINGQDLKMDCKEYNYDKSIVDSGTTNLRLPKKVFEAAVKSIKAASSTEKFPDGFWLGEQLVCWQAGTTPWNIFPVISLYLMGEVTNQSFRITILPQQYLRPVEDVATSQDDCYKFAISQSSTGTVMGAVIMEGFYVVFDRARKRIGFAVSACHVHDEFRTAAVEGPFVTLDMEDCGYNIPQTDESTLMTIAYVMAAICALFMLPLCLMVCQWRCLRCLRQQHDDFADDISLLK
# test: Inhibition of recombinant human BACE1 using (7-methoxycoumarin-4-yl)acetyl-SEVNL*DAEFRK(2,4-dinitrophenyl)-RR-NH2) as substrate at 2 uM by FRET assay
Exercise: for every item that follows, state its recorded inhibition.
Write the answer as a number in %, unit excluded.

Give the reported inhibition for this compound. COc1cccc([C@@H](C)NC(=O)c2cc(=O)cc(C(=O)N[C@@H](Cc3ccccc3)[C@H](O)C(=O)Nc3cccc(-c4nn[nH]n4)c3)o2)c1
48

For the compound Nc1cc(C(=O)N[C@@H](Cc2ccccc2)[C@H](O)C(=O)Nc2cccc(-c3nn[nH]n3)c2)nc(C(=O)N2COC[C@@H]2c2ccccc2)c1 , give its measured inhibition value.
78

Return inhibition (reported value) for this compound: O=C(NC(c1ccccc1)c1ccccc1)c1cc(=O)cc(C(=O)N[C@@H](Cc2ccccc2)[C@H](O)C(=O)Nc2cccc(-c3nn[nH]n3)c2)o1
13

Read off the recorded inhibition for C[C@@H](NC(=O)c1cc(=O)cc(C(=O)N[C@@H](Cc2ccccc2)[C@H](O)C(=O)Nc2cccc(-c3nn[nH]n3)c2)o1)c1ccc(F)cc1
76

Determine from records and report inhibition for CCCN(CCC)C(=O)c1cc(=O)cc(C(=O)N[C@@H](Cc2ccccc2)[C@@H](O)C(=O)Nc2cccc(-c3noc(=O)[nH]3)c2)o1
23

###

Exercise: state measured IC50 for each of the compounds provided.
# testSystem: Beta-secretase 1 (Homo sapiens, UniProt P56817)
# test: Inhibition of recombinant human BACE1 using (7-methoxycoumarin-4-yl)acetyl-SEVNL*DAEFRK(2,4-dinitrophenyl)-RR-NH2) as substrate by FRET assay
Entry rule: numbers only, all in µM.

Look up and state reported IC50 for [N-]=[N+]=Nc1cc(C(=O)N[C@@H](Cc2ccccc2)[C@H](O)C(=O)Nc2cccc(-c3nn[nH]n3)c2)nc(C(=O)N2COC[C@@H]2c2ccccc2)c1
0.079

# return recorded IC50 for entry CSc1cc(C(=O)N[C@@H](Cc2ccccc2)[C@H](O)C(=O)Nc2cccc(-c3nn[nH]n3)c2)nc(C(=O)N2COC[C@@H]2c2ccccc2)c1
0.089

For the compound COc1cc(C(=O)N[C@@H](Cc2ccccc2)[C@H](O)C(=O)Nc2cccc(-c3nn[nH]n3)c2)nc(C(=O)N2COC[C@@H]2c2ccccc2)c1 , report IC50.
0.151
